Each entry below carries its recorded normalized RNA/DNA level with ligand (log10).
B1: library; a variant is named by its letters at N, in order (parent)
chain: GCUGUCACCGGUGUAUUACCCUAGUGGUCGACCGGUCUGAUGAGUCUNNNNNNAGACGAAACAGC

# Variants of: B1
# assay-info: normalized RNA/DNA level with ligand (relative to sTRSVctl = 100) (log10 (% of sTRSVctl)); ligand: hypoxanthine (xanthine aptamer); higher = less ribozyme self-cleavage, higher mRNA level
# run-conditions: ligand concentration (+) RNA-Seq: 5 mM, HEK293T, reporter: mCherry (pCS4076), ligand present: yes

Solved entries:
The variant listed as GCGGAC shows normalized RNA/DNA level with ligand (log10) equal to 1.75

The variant identified as AGGGCA registered its normalized RNA/DNA level with ligand (log10) at 1.97

get_value(item= CUAUCA , readout=normalized RNA/DNA level with ligand (log10)) returns 1.92

Reported normalized RNA/DNA level with ligand (log10) of UGCGCU : 1.97

# variant GCUGGU ; its normalized RNA/DNA level with ligand (log10) = 1.96

Here is another variant to look at.
Field normalized RNA/DNA level with ligand (log10) (entry CUCCCU ) reads 1.94
